system: 817829-284-R-J1-PDC complex spheroids, viability; experiment: Anticancer human tumor 817829-284-R-J1-PDC patient-derived colon adenocarcinoma cell line growth inhibition [CLK]; conditions: curve of first compound; second compound 3.16 µM
Listed here are compounds together with their documented IC50.

Some solved cases for reference:
INSERT INTO measurements (compound, attribute_measured, readout_value) VALUES
  ('CCCS(=O)(=O)Nc1ccc(F)c(C(=O)c2c[nH]c3ncc(-c4ccc(Cl)cc4)cc23)c1F + CN1CCN(c2cc(C(=O)Nc3cc4cc(-c5cnn(C)c5)ccc4cn3)ccn2)CC1', 'IC50', '< 31.6 nM'),
  ('C#Cc1c(F)ccc2cc(O)cc(-c3ncc4c(N5CC6CCC(C5)N6)nc(OCC56CCCN5CC(F)C6)nc4c3F)c12 (stereo not given) + CN1CCN(c2cc(C(=O)Nc3cc4cc(-c5cnn(C)c5)ccc4cn3)ccn2)CC1', 'IC50', '< 31.6 nM'),
  ('CC1COCCN1c1cc(C2(S(C)(=N)=O)CC2)nc(-c2ccnc3[nH]ccc23)n1 (stereo not given) + CN1CCN(c2cc(C(=O)Nc3cc4cc(-c5cnn(C)c5)ccc4cn3)ccn2)CC1', 'IC50', '< 31.6 nM'),
  ('COC1C=CCC(C)C(C)S(=O)(=O)NC(=O)c2ccc3c(c2)N(CC2CCC21)CC1(CCCc2cc(Cl)ccc21)CO3 (stereo not given) + CN1CCN(c2cc(C(=O)Nc3cc4cc(-c5cnn(C)c5)ccc4cn3)ccn2)CC1', 'IC50', '< 31.6 nM');

Data request, read-out IC50, for CCc1c2c(nc3ccc(O)cc13)-c1cc3c(c(=O)n1C2)COC(=O)[C@]3(O)CC + CNC(=O)c1ccc(Nc2nc(OC3CCCC3)c3c(-c4ccc5nc(C)oc5c4)c[nH]c3n2)c(OC)c1 < 3.16 nM

====

tested on: 817829-284-R-J1-PDC complex spheroids, viability; test: Anticancer human tumor 817829-284-R-J1-PDC cell line growth inhibition [CLK]; conditions: curve of first compound; second compound 0.1 µM;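 also: spheroids exposed to the agents for seven days before readout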
Attribute Measured: IC50

Completed entries (count: 3):
INSERT INTO assay_data (compound, attribute_measured, readout_value) VALUES
  ('CC(=O)O[C@H]1C(=O)[C@@]2(C)[C@H]([C@H](OC(=O)c3ccccc3)[C@]3(O)C[C@H](OC(=O)[C@H](O)[C@@H](NC(=O)c4ccccc4)c4ccccc4)C(C)=C1C3(C)C)[C@]1(OC(C)=O)CO[C@@H]1C[C@@H]2O + CN1CCN(c2cc(C(=O)Nc3cc4cc(-c5cnn(C)c5)ccc4cn3)ccn2)CC1', 'IC50', '< 31.6 nM'),
  ('CC(C)CC(NC(=O)C(Cc1ccccc1)NC(=O)c1cnccn1)B(O)O (centres undefined) + CNC(=O)c1ccc(Nc2nc(OC3CCCC3)c3c(-c4ccc5nc(C)oc5c4)c[nH]c3n2)c(OC)c1', 'IC50', '< 0.949 nM'),
  ('COc1c(OCCCN2CCOCC2)ccc2c3n(c(=NC(=O)c4cnc(N)nc4)nc12)CCN3 + CNC(=O)c1ccc(Nc2nc(OC3CCCC3)c3c(-c4ccc5nc(C)oc5c4)c[nH]c3n2)c(OC)c1', 'IC50', '< 3.16 nM');

Now let's try a different one.
Fill blank: measured IC50 of the compound CC(=O)O[C@H]1C(=O)[C@@]2(C)[C@H]([C@H](OC(=O)c3ccccc3)[C@]3(O)C[C@H](OC(=O)[C@H](O)[C@@H](NC(=O)c4ccccc4)c4ccccc4)C(C)=C1C3(C)C)[C@]1(OC(C)=O)CO[C@@H]1C[C@@H]2O + CNC(=O)c1ccc(Nc2nc(OC3CCCC3)c3c(-c4ccc5nc(C)oc5c4)c[nH]c3n2)c(OC)c1 is ____. < 31.6 nM
